Reported melting point by item:
Structures can show the parent of a compound that is named as a salt.
Provide the reading as a plain figure in °C.

COMPOUND	UNIT_DESCRIPTOR	melting point
COc1ccccc1-n1cc(-c2ccccc2S(=O)(=O)c2ccc(C(=O)O)cc2)nn1 (as salt: salt)	°C	93

Query: melting point lookup needed for COc1ccccc1-c1noc(-c2ccccc2Sc2ccc([N+](=O)[O-])cc2)n1 , thanks.
Response: 138

###

- Tested on: wild-type HIV-1 (HIV-1LAI) in H9 cells (non-permissive)
- TEST_METHOD_NOTES: microbe, parasite or virus in culture
- Assay type: cell-based
- TEST_PARAMETERS: Human immunodeficiency virus 1, H9, read-out: Antiviral activity (IC50 μM) H9 Cells, Table 4; wild-type HIV-1, non-permissive H9 cells
The label label 1 is reserved for IC50 strictly under 5 µM; label 0 covers values equal to or above it.

Solved entries (count: 3):
COc1cccc(-n2cc(-c3ccccc3S(=O)(=O)c3ccc(N)cc3)nn2)c1OC label 0
COc1ccccc1-n1cc(-c2ccccc2S(=O)(=O)c2ccc(C(F)(F)F)cc2)nn1 label 1
COC(=O)c1ccc(Sc2ccccc2-c2cn(-c3cccc(OC)c3OC)nn2)cc1 label 0

Query: Field: below-cutoff. Rule: recorded IC50 strictly less than 5 µM. Subject: COc1ccc(-n2cc(-c3ccccc3Sc3ccc(C(=O)O)cc3)nn2)c(OC)c1
Response: label 0

###

- System: wild-type HIV-1 (HIV-1LAI) in H9 cells (non-permissive)
- TEST_METHOD_NOTES: microbe, parasite or virus in culture
- Assay type: cell-based
- TEST_PARAMETERS: Human immunodeficiency virus 1, H9, read-out: Antiviral activity (IC50 μM) H9 cells, Table 5; wild-type HIV-1, non-permissive H9 cells
Reported IC50 by item:
Provide the reading as a plain figure in µM.

COC(=O)c1ccc(S(=O)(=O)c2ccccc2-c2cn(-c3cccc(OC)c3OC)nn2)cc1 4.7
COc1ccc(OC)c(-n2cc(-c3ccccc3Sc3ccc(C(=O)O)cc3)nn2)c1 4.5
COC(=O)c1ccc(Sc2ccccc2-c2cn(-c3c(OC)cccc3OC)nn2)cc1 0.2
COc1cccc(OC)c1-n1cc(-c2ccccc2Sc2ccc(C(F)(F)F)cc2)nn1 5.3
COc1ccc(OC)c(-n2cc(-c3ccccc3S(=O)(=O)c3ccc([N+](=O)[O-])cc3)nn2)c1 1

Query: IC50 lookup needed for COc1ccccc1-n1cc(-c2ccccc2Sc2ccc(C(F)(F)F)cc2)nn1 , thanks.
Response: 2.6

Query: IC50 lookup needed for COc1ccccc1-n1cc(-c2ccccc2S(=O)(=O)c2ccc(C(F)(F)F)cc2)nn1 , thanks.
Response: 4.8

###

- System: wild-type HIV-1 (HIV-1LAI) in H9 cells (non-permissive)
- TEST_METHOD_NOTES: microbe, parasite or virus in culture
- Type: cell-based
- TEST_PARAMETERS: read-out: Antiviral activity (IC50 μM) H9; Table 2; wild-type HIV-1, non-permissive H9 cells
Reported IC50 by item:
Provide the reading as a plain figure in µM.

Query: IC50 lookup needed for COc1cccc(OC)c1-n1cc(-c2ccccc2Sc2ccc(C(=O)O)cc2)nn1 [Compound 6gx] , thanks.
Response: 52

Query: IC50 lookup needed for COc1cccc(-n2cc(-c3ccccc3Sc3ccc(C(=O)O)cc3)nn2)c1OC [Compound 3gx] , thanks.
Response: 4.3

###

- System: wild-type HIV-1 (HIV-1LAI) in H9 cells (non-permissive)
- TEST_METHOD_NOTES: microbe, parasite or virus in culture
- Assay type: cell-based
- TEST_PARAMETERS: Human immunodeficiency virus 1, H9, read-out: Antiviral activity (IC50 μM) H9 cells, Table 5; wild-type HIV-1, non-permissive H9 cells
PROPERTY_LABEL: IC50 (µM)
Provide the reading as a plain figure in µM.

Query: IC50 lookup needed for COC(=O)c1ccc(Sc2ccccc2-c2cn(-c3cc(OC)ccc3OC)nn2)cc1 , thanks.
Response: 0.2

Query: IC50 lookup needed for COc1ccccc1-n1cc(-c2ccccc2Sc2ccc(N)cc2)nn1 , thanks.
Response: 2.5

Query: IC50 lookup needed for COc1cccc(-n2cc(-c3ccccc3Sc3ccc([N+](=O)[O-])cc3)nn2)c1OC , thanks.
Response: 1.1

###

- Test system: wild-type HIV-1 (HIV-1LAI) in H9 cells (non-permissive)
- TEST_METHOD_NOTES: microbe, parasite or virus in culture
- Format: cell-based
- TEST_PARAMETERS: Human immunodeficiency virus 1, H9, read-out: Antiviral activity (IC50 μM) H9 Cells, Table 4; wild-type HIV-1, non-permissive H9 cells
PROPERTY_LABEL: IC50 (µM)
Provide the reading as a plain figure in µM.

Below, each entry is followed by its recorded IC50 result.
MOLECULE	IC50 (µM)
COc1ccc(S(=O)(=O)c2ccccc2-c2cn(-c3ccccc3OC)nn2)cc1 [Compound 2cy]	4.3
COc1ccccc1-n1cc(-c2ccccc2Sc2ccc(C(=O)O)cc2)nn1 [Compound 2fx]	1
COc1cccc(OC)c1-n1cc(-c2ccccc2S(=O)(=O)c2ccc(N)cc2)nn1 [Compound 6ey]	1.5

Let's switch to this molecule now.
Query: IC50 lookup needed for COc1cccc(-n2cc(-c3ccccc3Sc3ccc(C(=O)O)cc3)nn2)c1OC [Compound 3fx] , thanks.
Response: 2.8

###

Reported log10 IC50 by item:
- Tested on: wild-type HIV-1 (HIV-1LAI) in H9 cells (non-permissive)
- TEST_METHOD_NOTES: microbe, parasite or virus in culture
- Type: cell-based
- TEST_PARAMETERS: Human immunodeficiency virus 1, H9, read-out: Antiviral activity (IC50 μM) H9 cells, Table 5; wild-type HIV-1, non-permissive H9 cells
Scale type: logarithmic (base 10). Underlying IC50 unit: µM.

Below, each entry is followed by its recorded log10 IC50 result.
COMPOUND	RESULT_NUMBER
COc1ccc(Sc2ccccc2-c2cn(-c3ccccc3OC)nn2)cc1 [Compound 2cx]	1.13
COc1ccc(OC)c(-n2cc(-c3ccccc3S(=O)(=O)c3ccc(C(F)(F)F)cc3)nn2)c1 [Compound 5dy]	0.63
COc1cccc(-n2cc(-c3ccccc3Sc3ccc(N)cc3)nn2)c1OC [Compound 3ex]	0.70
COC(=O)c1ccc(Sc2ccccc2-c2cn(-c3c(F)cccc3OC)nn2)cc1 [Compound 7bx]	0.89
COc1cccc(OC)c1-n1cc(-c2ccccc2Sc2ccc([N+](=O)[O-])cc2)nn1 [Compound 6ax]	0.80

Query: log10 IC50 lookup needed for COc1ccc(Sc2ccccc2-c2cn(-c3cccc(OC)c3OC)nn2)cc1 [Compound 3cx] , thanks.
Response: 0.67

###

- Test system: wild-type HIV-1 (HIV-1LAI) in H9 cells (non-permissive)
- TEST_METHOD_NOTES: microbe, parasite or virus in culture
- Type: cell-based
- TEST_PARAMETERS: Human immunodeficiency virus 1, H9, read-out: Antiviral activity (IC50 μM) H9 Cells, Table 4; wild-type HIV-1, non-permissive H9 cells
The label condition met is reserved for IC50 strictly under 1 µM; condition not met covers values equal to or above it.

Solved entries (count: 5):
COMPOUND	LABEL_VALUE
COc1ccc(OC)c(-n2cc(-c3ccccc3S(=O)(=O)c3ccc(N)cc3)nn2)c1 [Compound 5ey]	condition met
COC(=O)c1ccc(S(=O)(=O)c2ccccc2-c2cn(-c3cccc(OC)c3OC)nn2)cc1 [Compound 3by]	condition not met
COc1ccccc1-n1cc(-c2ccccc2S(=O)(=O)c2ccc([N+](=O)[O-])cc2)nn1 [Compound 2ay]	condition not met
COc1ccc(Sc2ccccc2-c2cn(-c3cccc(OC)c3OC)nn2)cc1 [Compound 3cx]	condition not met
COc1cccc(OC)c1-n1cc(-c2ccccc2S(=O)(=O)c2ccc(C(=O)O)cc2)nn1 [Compound 6fy]	condition not met

Query: Field: below-cutoff. Rule: recorded IC50 strictly less than 1 µM. Subject: COc1cccc(-n2cc(-c3ccccc3Sc3ccc(C(F)(F)F)cc3)nn2)c1OC [Compound 3dx]
Response: condition not met

Query: Field: below-cutoff. Rule: recorded IC50 strictly less than 1 µM. Subject: COc1ccc(OC)c(-n2cc(-c3ccccc3S(=O)(=O)c3ccc(C(=O)O)cc3)nn2)c1 [Compound 5gy]
Response: condition met

Query: Field: below-cutoff. Rule: recorded IC50 strictly less than 1 µM. Subject: COc1ccc(OC)c(-n2cc(-c3ccccc3Sc3ccc([N+](=O)[O-])cc3)nn2)c1 [Compound 5ax]
Response: condition met

###

- Test system: wild-type HIV-1 (HIV-1LAI) in H9 cells (non-permissive)
- TEST_METHOD_NOTES: microbe, parasite or virus in culture
- Type: cell-based
- TEST_PARAMETERS: read-out: Antiviral activity (IC50 μM) H9 cells; Table 5; wild-type HIV-1, non-permissive H9 cells
Reported IC50 by item:

COMPOUND	RESULT
COc1ccccc1-n1cc(-c2ccccc2Sc2ccc(C(=O)O)cc2)nn1 [Compound 2gx]	> 50 µM
COc1ccc(-n2cc(-c3ccccc3Sc3ccc(C(=O)O)cc3)nn2)c(OC)c1 [Compound 4gx]	> 50 µM
COc1cccc(OC)c1-n1cc(-c2ccccc2Sc2ccc(C(=O)O)cc2)nn1 [Compound 6gx]	52 µM
COc1ccc(OC)c(-n2cc(-c3ccccc3Sc3ccc(C(=O)O)cc3)nn2)c1 [Compound 5gx]	> 50 µM
COc1cccc(-n2cc(-c3ccccc3Sc3ccc(C(=O)O)cc3)nn2)c1OC [Compound 3gx]	4.3 µM

Query: IC50 lookup needed for COc1cccc(-n2cc(-c3ccccc3S(=O)(=O)c3ccc(C(=O)O)cc3)nn2)c1OC [Compound 3gy] , thanks.
Response: > 50 µM

Query: IC50 lookup needed for COc1cccc(F)c1-n1cc(-c2ccccc2Sc2ccc(C(=O)O)cc2)nn1 [Compound 7gx] , thanks.
Response: > 50 µM

Query: IC50 lookup needed for COc1cccc(OC)c1-n1cc(-c2ccccc2S(=O)(=O)c2ccc(C(=O)O)cc2)nn1 [Compound 6gy] , thanks.
Response: > 50 µM
